tested on: human thrombocytes (PAF-induced aggregation); test: inhibition of PAF-induced aggregation of human thrombocytes in vitro; assay type: cell-based; settings: PAF-induced aggregation, read-out: IC50 (concentration for a 50% inhibition of aggregation)
recorded_metric: IC50 (µM)
Supply the numeric figure in µM, leaving out any unit text.

Recorded IC50 for Cc1nnc2n1-c1ccc(Cl)cc1C(c1ccccc1)=NC2 [Alprazolam, alprazolam, reference compound] , please?
14

Where do the numbers come from? From patent US4900729A.
